These entries and their values trace back to ChEMBL document CHEMBL5608163.

system: Escherichia coli; experiment: Antimicrobial activity against Escherichia coli assessed as reduction in microbial growth by broth micro-dilution method; assay type: functional
Numbered stars: 1 amine (or outer) side, 2 acyl side, 3 side chain; on linkers, the order of the positions; unused ones are H or OH. Square brackets hold non-standard residues; d marks the D form. Peptide text beside a SMILES is read from it. X3 = O=C(CN(CC(c1ccccc1)c1ccccc1)[*:1])[*:2]; NCyclohexylmethylGly = O=C(O)CNCC1CCCCC1; NBuGly = CCCCNCC(=O)O
MEASURE_NAME: MIC (µM)
Only the number, expressed in µM, is required.

Field request: MIC | item: CC[C@H](C)[C@H](NC(=O)[C@H](CCCNC(=N)N)NC(=O)[C@H](CCCCN)NC(=O)[C@H](CC(C)C)NC(=O)[C@H](CC(C)C)NC(=O)CNCC(c1ccccc1)c1ccccc1)C(=O)N[C@@H](CCCCN)C(=O)N[C@H](C(=O)N[C@@H](CC(C)C)C(=O)N[C@@H](CC(C)C)C(N)=O)[C@@H](C)O (H-[X3]LLKRIKTLL-NH2) 12.5

Given the entry CCCCNCC(=O)N[C@@H](CC(C)C)C(=O)N[C@@H](CC(C)C)C(=O)N[C@@H](CCCCN)C(=O)N[C@@H](CCCNC(=N)N)C(=O)N[C@H](C(=O)N[C@@H](CCCCN)C(=O)N[C@H](C(=O)N[C@@H](CC(C)C)C(=O)N[C@@H](CC(C)C)C(N)=O)[C@@H](C)O)[C@@H](C)CC (H-[NBuGly]LLKRIKTLL-NH2) , report its measured MIC. 100

So what's the measured MIC for this one? CC[C@H](C)[C@H](NC(=O)[C@H](CCCNC(=N)N)NC(=O)[C@H](CCCCN)NC(=O)[C@H](CC(C)C)NC(=O)[C@H](CC(C)C)NC(=O)CNCC1CCCCC1)C(=O)N[C@@H](CCCCN)C(=O)N[C@H](C(=O)N[C@@H](CC(C)C)C(=O)N[C@@H](CC(C)C)C(N)=O)[C@@H](C)O (H-[NCyclohexylmethylGly]LLKRIKTLL-NH2) 25

---

Hi there, I'd appreciate the recorded MIC for every entry that follows.
test system: Zymomonas mobilis; test: Antibacterial activity against Zymomonas mobilis ATCC 10988 assessed as bacterial growth inhibition; format: functional
Peptide text beside a SMILES is read from it. * marks the point of attachment. Undecanoyl = CCCCCCCCCCC(=O)*; Nonanoyl = CCCCCCCCC(=O)*
Only the number, expressed in µM, is required.

Looking for the measured MIC of CCCCCCCCCCC(=O)NCC(=O)N[C@@H](CC(C)C)C(=O)N[C@@H](CCCCN)C(=O)N[C@@H](CCCCN)C(=O)N[C@H](C(=O)N[C@H](C(=O)N[C@@H](CCCCN)C(=O)N[C@@H](CCCCN)C(=O)N[C@@H](CC(C)C)C(=O)N[C@@H](CC(C)C)C(N)=O)[C@@H](C)CC)[C@@H](C)CC (Undecanoyl-GLKKIIKKLL-NH2) , can you help? 12.5

For the compound CCCCCCCCC(=O)NCC(=O)N[C@@H](CC(C)C)C(=O)N[C@@H](CCCCN)C(=O)N[C@@H](CCCCN)C(=O)N[C@H](C(=O)N[C@H](C(=O)N[C@@H](CCCCN)C(=O)N[C@@H](CCCCN)C(=O)N[C@@H](CC(C)C)C(=O)N[C@@H](CC(C)C)C(N)=O)[C@@H](C)CC)[C@@H](C)CC (Nonanoyl-GLKKIIKKLL-NH2) , what MIC is on record? 11.5

Item under review: CCCCCCCCCCC(=O)NCC(=O)N[C@@H](CC(C)C)C(=O)N[C@@H](CC(C)C)C(=O)N[C@@H](CCCCN)C(=O)N[C@H](C(=O)N[C@H](C(=O)N[C@@H](CCCCN)C(=O)N[C@@H](CCCCN)C(=O)N[C@@H](CC(C)C)C(=O)N[C@@H](CC(C)C)C(N)=O)[C@@H](C)CC)[C@@H](C)CC (Undecanoyl-GLLKIIKKLL-NH2) . Reported MIC? 8.68
